system: MCF7 breast; assay: NCI tumour cell line growth inhibition, 48 h
# TGI >= 30 µM gives criterion met, anything below gives criterion not met

[
  {
    "Compound": "COC(=O)c1oc2c(C(=O)/C=C/c3ccc(OC)cc3)c(OCCN3CCOCC3)ccc2c1C",
    "Class name": "criterion not met"
  },
  {
    "Compound": "CN1CCN(Cc2nc3c(s2)CCc2sccc2-3)CC1",
    "Class name": "criterion met"
  },
  {
    "Compound": "CCCC(=O)OC[n+]1ccc(-c2c(COC(=O)NC(C)C)c(COC(=O)NC(C)C)c3n2CCC3)cc1",
    "Class name": "criterion met"
  },
  {
    "Compound": "Cc1[nH]nc2ncc(C(=O)N3CCC[C@H]3c3ccc(Cl)cc3)cc12",
    "Class name": "criterion met"
  },
  {
    "Compound": "O=CN1CCC23CC(O)CCC2C1Cc1cc(Oc2nnnn2-c2ccccc2)cc(O)c13 (configuration not stated)",
    "Class name": "criterion met"
  },
  {
    "Compound": "Cc1cn(C2CCN(CC3COC(C)(C)O3)O2)c(=O)[nH]c1=O (configuration not stated)",
    "Class name": "criterion met"
  },
  {
    "Compound": "O=C1C=C(c2ccccc2)O/C1=C\\C(=O)c1ccc(Cl)cc1",
    "Class name": "criterion met"
  },
  {
    "Compound": "COc1ccc(-c2[nH]nc(N)c2-c2cc(OC)c(OC)c(OC)c2)cc1",
    "Class name": "criterion met"
  }
]

Here's the next entry for you.
// inclusive: TGI at least 30 µM? input: O=C(CN=C(CN(c1ccccc1)c1ccccc1)Oc1ccc(Cl)cc1Cl)n1ccnc1 criterion met

The origin of these recorded values is PubChem BioAssay (NCI).
